Below, each of the molecules is paired with its reported % inhibition T4 40' value.
Biological target: bacteriophage T4 DNA polymerase (Enterobacteria phage T4)
Construct: made in house
Sequence (P04415 1-898): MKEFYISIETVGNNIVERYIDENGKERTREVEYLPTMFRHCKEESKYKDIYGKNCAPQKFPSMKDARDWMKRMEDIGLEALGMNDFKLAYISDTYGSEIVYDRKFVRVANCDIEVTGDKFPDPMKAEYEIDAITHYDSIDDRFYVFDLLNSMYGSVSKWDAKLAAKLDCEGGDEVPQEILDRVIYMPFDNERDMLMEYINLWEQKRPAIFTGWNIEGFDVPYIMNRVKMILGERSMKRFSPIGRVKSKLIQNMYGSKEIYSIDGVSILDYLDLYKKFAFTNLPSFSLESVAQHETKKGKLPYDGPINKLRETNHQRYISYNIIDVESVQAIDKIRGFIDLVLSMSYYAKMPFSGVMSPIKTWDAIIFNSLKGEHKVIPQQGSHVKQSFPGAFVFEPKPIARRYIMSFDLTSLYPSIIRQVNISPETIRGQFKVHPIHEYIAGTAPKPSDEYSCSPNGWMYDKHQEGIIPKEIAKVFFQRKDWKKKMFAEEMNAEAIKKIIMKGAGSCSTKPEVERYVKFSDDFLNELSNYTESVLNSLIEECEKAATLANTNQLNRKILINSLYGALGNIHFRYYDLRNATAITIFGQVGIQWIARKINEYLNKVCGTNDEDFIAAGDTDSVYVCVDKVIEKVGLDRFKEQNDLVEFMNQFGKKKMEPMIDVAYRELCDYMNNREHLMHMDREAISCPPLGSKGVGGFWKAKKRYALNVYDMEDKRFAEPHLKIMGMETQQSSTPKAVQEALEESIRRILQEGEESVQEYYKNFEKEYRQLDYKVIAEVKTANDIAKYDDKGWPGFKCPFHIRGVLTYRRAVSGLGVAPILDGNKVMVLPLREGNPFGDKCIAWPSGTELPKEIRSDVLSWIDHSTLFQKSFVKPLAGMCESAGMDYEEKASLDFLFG
Test: Counter-screen against bacteriophage T4 DNA polymerase
Assay type: biochemical
Settings: DRC-2; 40'; concentration 80
Numeric answer plus unit only.

Reference set (5 entries):
{"molecule": "O=c1[nH]c2ccc([N+](=O)[O-])cc2c(-c2ccccc2)c1Sc1nc2ccccc2o1", "tested-on": "bacteriophage T4 DNA polymerase (Enterobacteria phage T4)", "% inhibition T4 40'": "47%"}
{"molecule": "Cc1ccccc1C(=O)N1CCc2c(nc3cc(-c4ccccc4)[nH]n3c2=O)C1", "tested-on": "bacteriophage T4 DNA polymerase (Enterobacteria phage T4)", "% inhibition T4 40'": "-46%"}
{"molecule": "CC(=O)c1cc2c(N)c(/C(N)=N/C#N)sc2nc1C", "tested-on": "bacteriophage T4 DNA polymerase (Enterobacteria phage T4)", "% inhibition T4 40'": "-21%"}
{"molecule": "O=C(Cc1cc(=O)[nH]c(SCc2ccccc2)n1)Nc1ccc2c(c1)OCO2", "tested-on": "bacteriophage T4 DNA polymerase (Enterobacteria phage T4)", "% inhibition T4 40'": "6%"}
{"molecule": "N#CC(=NNc1cc(C(F)(F)F)cc(C(F)(F)F)c1)C(=O)c1ccco1", "tested-on": "bacteriophage T4 DNA polymerase (Enterobacteria phage T4)", "% inhibition T4 40'": "19%"}

Which measured % inhibition T4 40' value corresponds to "CCOC(=O)C1=C2c3cc(OC)c(OC)cc3CC(C)(C)N2C(=O)C1=O" ?
45%

For the molecule shown here, "Cc1ccc(C)n1-c1ccc(C(=O)NNC(=O)c2ccc3nccnc3c2)cc1" , give the reported % inhibition T4 40'.
38%

Find the recorded % inhibition T4 40' belonging to "Cc1nc(/N=N/c2ccc(C(=O)[O-])cc2)c(COP(=O)([O-])[O-])c(C=O)c1O.[Na+].[Na+].[Na+]" and report it.
-18%

What measured % inhibition T4 40' goes with "CC(C)(C)OC(=O)COc1ccc2cc(-c3ccccc3)c(=O)oc2c1" ?
6%

Fill in: % inhibition T4 40' of O=C1N=C(Nc2cccc(Cl)c2Cl)S/C1=C\c1ccco1 [Molecule 3, O=C1N=C(S/C/1=C\c1ccco1)Nc1cccc(c1Cl)Cl] is ___
13%

Values compiled from paper PMC9090415.
